# protocol.notes: Total concentration in Lewis rat blood at 1 mg/kg, po bid after 24 hrs by LC/MS/MS analysis
# Type: ADME, organism-based
# study.conditions: read-out: Drug uptake
readout.label: concentration at 24 h (nM)
Answers are plain numbers, in nM.

QUERY: Fill in the blank: the reported concentration at 24 h of Cc1ncc(F)cc1NC(=O)C[C@H](C(=O)N[C@@H]1C(=O)N2CC3(CC3)CN2C(=O)c2ccccc21)C1CC1 is ____.
RESULT: 49

----------
# target.desc: Signal peptide peptidase-like 2B (Homo sapiens, UniProt Q8TCT7)
# Sequence (Q8TCT7 whole entry, the tested form may be a part): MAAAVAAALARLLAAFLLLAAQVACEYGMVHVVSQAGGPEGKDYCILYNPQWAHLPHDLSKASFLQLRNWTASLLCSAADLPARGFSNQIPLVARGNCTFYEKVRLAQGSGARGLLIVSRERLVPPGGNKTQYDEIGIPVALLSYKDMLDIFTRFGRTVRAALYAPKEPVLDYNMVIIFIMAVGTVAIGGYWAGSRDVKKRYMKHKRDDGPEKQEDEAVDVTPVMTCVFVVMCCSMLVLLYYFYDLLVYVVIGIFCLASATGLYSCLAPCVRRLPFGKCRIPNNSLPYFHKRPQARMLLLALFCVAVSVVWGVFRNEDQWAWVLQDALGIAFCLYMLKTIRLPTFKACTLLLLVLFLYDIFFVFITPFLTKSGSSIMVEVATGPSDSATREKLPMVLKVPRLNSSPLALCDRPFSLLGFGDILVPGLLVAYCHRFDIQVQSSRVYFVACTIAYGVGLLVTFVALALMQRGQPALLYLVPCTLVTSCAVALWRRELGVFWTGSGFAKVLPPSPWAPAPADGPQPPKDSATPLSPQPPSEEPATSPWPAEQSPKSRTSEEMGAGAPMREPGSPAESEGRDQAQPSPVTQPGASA
# protocol.notes: Inhibition of human SPPL2b expressed in human U2OS cells using EGFP-labeled TNFalpha (1 to 76 residues) NTF as substrate after 24 hrs by Hoechst staining based high content imaging assay
readout.label: IC50 (nM)
One number for each entry, in nM.

QUERY: Fill in the blank: the reported IC50 of Cc1ncc(F)cc1NC(=O)C[C@H](C(=O)N[C@@H]1C(=O)N2CC3(CC3)CN2C(=O)c2ccccc21)C1CC1 is ____.
RESULT: 430

----------
# protocol.notes: Total plasma concentration in mouse at 30 mg/kg, po administered as single dose after 4 hrs by LC/MS/MS analysis
# Type: ADME, organism-based
readout.label: concentration at 4 h (nM)
Give bare numbers, in nM.

QUERY: Fill in the blank: the reported concentration at 4 h of Cc1ccccc1NC(=O)C[C@@H](C)C(=O)N[C@@H]1C(=O)N2CCCN2Cc2ccccc21 is ____.
RESULT: 500

----------
# target.desc: Signal peptide peptidase-like 2A (Mus musculus, UniProt Q9JJF9)
# Sequence (Q9JJF9 whole entry, the tested form may be a part): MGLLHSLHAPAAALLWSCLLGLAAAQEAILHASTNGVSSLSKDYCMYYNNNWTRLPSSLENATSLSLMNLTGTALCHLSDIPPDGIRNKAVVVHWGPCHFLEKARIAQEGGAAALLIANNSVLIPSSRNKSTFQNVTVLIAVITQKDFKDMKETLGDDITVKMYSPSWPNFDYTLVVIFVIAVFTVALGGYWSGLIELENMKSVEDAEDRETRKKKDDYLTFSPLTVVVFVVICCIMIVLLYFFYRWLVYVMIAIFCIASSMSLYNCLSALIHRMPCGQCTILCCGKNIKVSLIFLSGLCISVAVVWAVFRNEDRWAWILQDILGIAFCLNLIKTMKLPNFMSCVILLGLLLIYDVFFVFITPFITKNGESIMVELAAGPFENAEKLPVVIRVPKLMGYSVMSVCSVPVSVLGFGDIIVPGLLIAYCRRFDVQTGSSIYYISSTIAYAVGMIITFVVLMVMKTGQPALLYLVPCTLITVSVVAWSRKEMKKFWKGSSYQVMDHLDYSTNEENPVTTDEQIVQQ
# protocol.notes: Inhibition of mouse SPPL2a expressed in human U2OS cells using EGFP-labeled TNFalpha (1 to 77 residues) NLS as substrate after 24 hrs by Hoechst staining based high content imaging assay
# Assay type: cell-based
readout.label: IC50

QUERY: # value lookup — system Signal peptide peptidase-like 2A (Mus musculus, UniProt Q9JJF9), readout IC50, item Cc1ncc(F)cc1NC(=O)C[C@H](C(=O)N[C@@H]1C(=O)N2CC3(CC3)CN2C(=O)c2ccccc21)C1CC1
RESULT: 180 nM

----------
# protocol.notes: Stability in rat liver microsomes at […] preincubated for 3 mins followed by NADPH addition measured after 1 hr in presence of GSH and [13C2-15N-glycine]-GSH by HPLC/MS method
# Format: ADME, microsome
# study.conditions: read-out: Stability
readout.label: remaining at 1 h

QUERY: Fill in the blank: the reported remaining at 1 h of Cc1ccccc1NC(=O)C[C@@H](C)C(=O)N[C@@H]1C(=O)N2CCCN2Cc2ccccc21 is ____.
RESULT: 93.2%

----------
# protocol.notes: Oral bioavailability in Sprague-Dawley rat at 1 mg/kg by LC/MS/MS analysis
# Format: ADME, organism-based
# study.conditions: in vivo
So I've got a bunch of molecules here, and I need their bioavailability values.
Answers are plain numbers, in %.

>>> observed_value("Cc1ncc(F)cc1NC(=O)C[C@@H](C)C(=O)N[C@@H]1C(=O)N2CCCN2Cc2ccccc21")
100

# next molecule below
QUERY: Fill in the blank: the reported bioavailability of Cc1ncc(F)cc1NC(=O)C[C@@H](C)C(=O)N[C@@H]1C(=O)N2CCCN2Cc2c(F)cccc21 is ____.
RESULT: 54

----------
So I've got a bunch of compounds here, and I need their pIC50 values.
# target.desc: Signal peptide peptidase-like 2A (Mus musculus, UniProt Q9JJF9)
# protocol.notes: Inhibition of SPPL2a in mouse whole blood assessed as increase in CD74/p8 accumulation after 5.5 hrs by Western bot method
Numbers only, as −log10 of the molar value.

>>> observed_value("Cc1ccccc1NC(=O)C[C@@H](C)C(=O)N[C@@H]1C(=O)N2CCCN2Cc2ccccc21")
6.26

# next compound below
QUERY: Fill in the blank: the reported pIC50 of Cc1ncc(F)cc1NC(=O)C[C@@H](C)C(=O)N[C@@H]1C(=O)N2CCCN2Cc2ccccc21 is ____.
RESULT: 7.30

----------
# target.desc: Signal peptide peptidase-like 2A (Rattus norvegicus, UniProt D3ZNG3)
# Sequence (D3ZNG3 whole entry, the tested form may be a part): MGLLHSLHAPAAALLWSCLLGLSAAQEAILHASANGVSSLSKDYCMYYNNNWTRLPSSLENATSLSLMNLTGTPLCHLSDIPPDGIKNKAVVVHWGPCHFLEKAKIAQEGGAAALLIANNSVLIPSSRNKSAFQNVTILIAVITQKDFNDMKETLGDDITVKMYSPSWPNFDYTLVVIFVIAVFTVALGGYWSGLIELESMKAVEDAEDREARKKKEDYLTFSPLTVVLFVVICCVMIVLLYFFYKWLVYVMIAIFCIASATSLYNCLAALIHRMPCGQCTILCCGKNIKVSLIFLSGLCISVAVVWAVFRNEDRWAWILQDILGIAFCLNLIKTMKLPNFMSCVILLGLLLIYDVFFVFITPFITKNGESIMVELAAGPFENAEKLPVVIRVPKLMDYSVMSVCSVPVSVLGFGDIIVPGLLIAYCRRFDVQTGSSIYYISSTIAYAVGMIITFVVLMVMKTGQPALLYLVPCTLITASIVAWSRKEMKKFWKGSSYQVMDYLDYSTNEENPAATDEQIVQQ
# protocol.notes: Inhibition of rat SPPL2a expressed in human U2OS cells using EGFP-labeled TNFalpha (1 to 77 residues) NLS as substrate after 24 hrs by Hoechst staining based high content imaging assay
readout.label: IC50 (µM)
Answers are plain numbers, in µM.

QUERY: # value lookup — system Signal peptide peptidase-like 2A (Rattus norvegicus, UniProt D3ZNG3), readout IC50, item Cc1ncc(F)cc1NC(=O)C[C@H](C(=O)N[C@@H]1C(=O)N2CC3(CC3)CN2C(=O)c2ccccc21)C1CC1
RESULT: 0.056

----------
# target.desc: UniProt Q8TCT8
# Sequence (Q8TCT8 whole entry, the tested form may be a part): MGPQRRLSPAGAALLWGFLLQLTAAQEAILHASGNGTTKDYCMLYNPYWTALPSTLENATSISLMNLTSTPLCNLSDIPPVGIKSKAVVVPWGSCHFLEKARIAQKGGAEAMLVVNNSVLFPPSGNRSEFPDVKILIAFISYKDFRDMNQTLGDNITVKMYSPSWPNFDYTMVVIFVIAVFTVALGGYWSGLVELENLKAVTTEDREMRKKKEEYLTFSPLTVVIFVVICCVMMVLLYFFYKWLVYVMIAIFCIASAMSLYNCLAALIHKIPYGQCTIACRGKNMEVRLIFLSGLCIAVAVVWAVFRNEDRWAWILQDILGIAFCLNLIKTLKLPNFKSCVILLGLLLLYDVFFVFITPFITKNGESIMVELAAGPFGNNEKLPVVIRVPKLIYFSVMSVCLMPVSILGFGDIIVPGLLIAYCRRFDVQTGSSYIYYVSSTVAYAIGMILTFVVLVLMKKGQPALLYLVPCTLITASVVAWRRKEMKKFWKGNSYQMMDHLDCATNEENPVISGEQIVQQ
# protocol.notes: Inhibition of human SPPL2a expressed in human U2OS cells using EGFP-labeled TNFalpha (1 to 76 residues) NTF as substrate after 24 hrs by Hoechst staining based high content imaging analysis
# Format: cell-based
readout.label: IC50 (nM)
Numbers only, in nM.

QUERY: # value lookup — system UniProt Q8TCT8, readout IC50, item Cc1ncc(F)cc1NC(=O)C[C@H](C(=O)N[C@@H]1C(=O)N2CC3(CC3)CN2C(=O)c2ccccc21)C1CC1
RESULT: 160

----------
So I've got a bunch of molecules here, and I need their logP values.
# protocol.notes: Octanol-buffer partition coefficient, log P of the compound by LC/MS/MS based shake flask method
# Assay type: physicochemical
One number for each entry.

Examples with answers:
>>> observed_value("Cc1ncc(F)cc1NC(=O)C[C@H](C(=O)N[C@@H]1C(=O)N2CCCN2C(=O)c2ccccc21)C1CC1")
1.6
>>> observed_value("Cc1ncc(F)cc1NC(=O)C[C@@H](C)C(=O)N[C@@H]1C(=O)N2CCCN2C(=O)c2ccccc21")
0.9
>>> observed_value("Cc1ncc(F)cc1NC(=O)C[C@@H](C)C(=O)N[C@@H]1C(=O)N2CCCN2Cc2c(F)cccc21")
2.1
>>> observed_value("Cc1ncc(F)cc1NC(=O)C[C@@H](C)C(=O)N[C@@H]1C(=O)N2CCCN2Cc2ccccc21")
1.7

QUERY: Fill in the blank: the reported logP of Cc1ncc(F)cc1NC(=O)C[C@H](C(=O)N[C@@H]1C(=O)N2CC3(CC3)CN2C(=O)c2ccccc21)C1CC1 is ____.
RESULT: 2.3

----------
# protocol.notes: Total concentration in Lewis rat blood at 30 mg/kg, po bid after 24 hrs by LC/MS/MS analysis
# Format: ADME, organism-based
# study.conditions: read-out: Drug uptake
readout.label: concentration at 24 h (µM)
One number for each entry, in µM.

QUERY: Fill in the blank: the reported concentration at 24 h of Cc1ncc(F)cc1NC(=O)C[C@H](C(=O)N[C@@H]1C(=O)N2CC3(CC3)CN2C(=O)c2ccccc21)C1CC1 is ____.
RESULT: 3.56

----------
So I've got a bunch of molecules here, and I need their pIC50 values.
# protocol.notes: Inhibition of human SPP expressed in human U2OS cells using EGFP-labeled EnvSigSeq-SEAP as substrate after 24 hrs by Hoechst staining based high content imaging assay
# Assay type: cell-based
Answers are plain numbers, as −log10 of the molar value.

>>> observed_value("Cc1ncc(F)cc1NC(=O)C[C@H](C(=O)N[C@@H]1C(=O)N2CC3(CC3)CN2C(=O)c2ccccc21)C1CC1")
5.43

# next molecule below
QUERY: Fill in the blank: the reported pIC50 of C[C@H](NC(=O)[C@@H](O)c1cc(F)cc(F)c1)C(=O)N[C@@H]1C(=O)N(C)c2ccccc2-c2ccccc21 is ____.
RESULT: 7.30

----------
So I've got a bunch of compounds here, and I need their pIC50 values.
# target.desc: Signal peptide peptidase-like 2A (Mus musculus, UniProt Q9JJF9)
# protocol.notes: Inhibition of mouse SPPL2a in A20 cells assessed as CD74/p8 accumulation by flow cytometry
# Type: cell-based
One number for each entry, as −log10 of the molar value.

I have 5 compounds here; please give me pIC50 for each one.
1. Cc1ncc(F)cc1NC(=O)C[C@@H](C)C(=O)N[C@@H]1C(=O)N2CCCN2Cc2c(F)cccc21
2. Cc1ncc(F)cc1NC(=O)C[C@H](C(=O)N[C@@H]1C(=O)N2CCCN2C(=O)c2ccccc21)C1CC1
3. Cc1ncc(F)cc1NC(=O)C[C@@H](C)C(=O)N[C@@H]1C(=O)N2CCCN2Cc2ccccc21
4. Cc1ncc(F)cc1NC(=O)C[C@H](C(=O)N[C@@H]1C(=O)N2CC3(CC3)CN2C(=O)c2ccccc21)C1CC1
5. Cc1ccccc1NC(=O)C[C@@H](C)C(=O)N[C@@H]1C(=O)N2CCCN2Cc2ccccc21

RESULT:
1: 6.92; 2: 6.30; 3: 7.01; 4: 6.86; 5: 6.43

----------
# protocol.notes: Clearance in Balb/c mouse at 5 mg/kg, iv by LC/MS/MS analysis
# Assay type: ADME, organism-based
# study.conditions: in vivo
So I've got a bunch of compounds here, and I need their clearance values.
Answer with the value and then the unit.

>>> observed_value("Cc1ncc(F)cc1NC(=O)C[C@@H](C)C(=O)N[C@@H]1C(=O)N2CCCN2Cc2ccccc21")
"32 mL/min/kg"
>>> observed_value("Cc1ccccc1NC(=O)C[C@@H](C)C(=O)N[C@@H]1C(=O)N2CCCN2Cc2ccccc21")
"46 mL/min/kg"

QUERY: Fill in the blank: the reported clearance of Cc1ncc(F)cc1NC(=O)C[C@H](C(=O)N[C@@H]1C(=O)N2CC3(CC3)CN2C(=O)c2ccccc21)C1CC1 is ____.
RESULT: 5 mL/min/kg
